Origin of the recorded values: PubChem BioAssay (NCI)

test system: MOLT-4 leukemia; assay: NCI tumour cell line growth inhibition, 48 h
parameter_measured: GI50

query: Record request: GI50 value, item CC(C)COCC(CN(Cc1ccccc1)c1ccccc1)N1CCCC1 (stereo not drawn)
result: 3.61 µM

query: Follow-up item: O=C(c1ccccc1)C(Br)C(Br)c1cccc([N+](=O)[O-])c1 (stereo not drawn)
result: 2.09 µM

query: Follow-up item: Cc1cc(=O)[nH]c2cc3c(c4c(n3Cc3ccc(Cl)cc3Cl)CC(C)(C)CC4=O)c(O)c12
result: > 100 µM

query: Follow-up item: COc1cc(/C=C/C(=O)c2c(C)nc3ccccc3c2/C=C/c2ccc(C)cc2)cc(OC)c1OC
result: 2.56 µM

query: Follow-up item: CNCCNc1c2c(c(NCCNC)c3[nH]ccc13)C(=O)c1ccccc1C2=O
result: < 0.0261 µM

query: Follow-up item: CNC(=O)CC1NC(=O)c2csc(n2)-c2ccc(-c3nc(C4=NC(C(=O)N5CCCC5C(N)=O)CO4)cs3)nc2-c2csc(n2)-c2csc(n2)C(C(C)C)NC(=O)CNC(=O)c2csc(n2)C(C(C)C)NC(=O)c2nc1sc2C (stereo not drawn)
result: 1.63 µM

query: Follow-up item: OC(CNCC1CCCO1)Cn1c2ccc(Cl)cc2c2cc(Cl)ccc21 (stereo not drawn)
result: 2.09 µM

query: Follow-up item: CCN1Cc2c(ccc(F)c2C#N)O[C@@H](C)CNC(=O)c2c(N)nn3ccc1nc23
result: 2.75 µM

* * *

tested on: HCT-116 colon; assay: NCI tumour cell line growth inhibition, 48 h
Hi there, I'd appreciate the recorded GI50 for every entry that follows.

query: GET /values?readout=GI50&system=HCT-116 colon&item= CC(NCCC(=O)N(CCC(=O)N(CCC(=O)N(CCC(=O)N(CCC(=O)N(CCC(=O)N(CCC(=O)N(CCC(=O)N(CCC(=O)N(CCC(=O)O)[C@H](C)c1ccccc1)[C@H](C)c1ccccc1)[C@H](C)c1ccccc1)[C@H](C)c1ccccc1)[C@H](C)c1ccccc1)[C@H](C)c1ccccc1)[C@H](C)c1ccccc1)[C@H](C)c1ccccc1)[C@H](C)c1ccccc1)c1ccccc1 (stereo partly drawn)
result: 1950 nM

query: Follow-up item: COc1cc(Cl)cc(-c2nn(-c3cccc(NC(=O)Nc4cc(C(F)(F)F)cc(C(F)(F)F)c4)c3)cc2-c2ccncc2)c1
result: 356 nM

query: Follow-up item: NC(N)=N/N=C/c1c(-c2cc([N+](=O)[O-])c(Cl)cc2Cl)nc2sccn12
result: 272 nM

query: Follow-up item: CCCCCCCCCCCCOC1C(C(COC2OC(C3COC(C)(C)O3)C3OC(C)(C)OC23)NC(=O)NS(=O)(=O)c2ccccc2)OC2OC(C)(C)OC21 (stereo not drawn)
result: 4050 nM

query: Follow-up item: Oc1[nH]c2c(Br)cccc2c1C1=Nc2ccccc2/C1=N/OCCN1CCCC1
result: 448 nM

query: Follow-up item: Nc1nc(N)c2c(n1)NC(c1ccc(F)cc1)C1CCc3ccccc3C1=N2 (stereo not drawn)
result: 3040 nM

query: Follow-up item: Cc1cc(NCc2cc(Nc3ccnc4cc(Cl)ccc34)ccc2F)nc(N2CCN(C)CC2)n1
result: 1250 nM

query: Follow-up item: CN(C)CC1C(=O)O[C@H]2[C@H]1CC/C(COC(=O)c1cc3ccccc3[nH]1)=C\CC[C@@]1(C)O[C@@H]21 (stereo partly drawn)
result: 577 nM

* * *

tested on: MALME-3M melanoma; assay: NCI tumour cell line growth inhibition, 48 h
parameter_measured: GI50

query: Record request: GI50 value, item COc1ccccc1N1CCN(CCc2c[nH]c3cc4c(cc23)OCO4)CC1
result: 27900 nM

query: Follow-up item: COc1cc(Cl)cc(-c2nn(-c3cccc(NC(=O)Nc4cc(C(F)(F)F)cc(C(F)(F)F)c4)c3)cc2-c2ccncc2)c1
result: 730 nM

query: Follow-up item: C=C1C(=O)O[C@H]2[C@H]1CCC(/C=N/c1ncc(Br)cc1N)=C\CC[C@@]1(C)O[C@@H]21
result: 1550 nM

query: Follow-up item: COc1cc2c(cc1OCCCCCOc1ccc(-n3c(C)nc4ccccc4c3=O)cc1)N=C[C@@H]1CCCN1C2=O
result: 236 nM

query: Follow-up item: NC1=C(c2nc(-c3ccccc3)cs2)C(c2ccc(Br)cc2)c2c(c3ccccc3oc2=O)O1 (stereo not drawn)
result: > 150 µg/mL

query: Follow-up item: COc1cc(/C=N/NC(=O)c2cnn3c2NC(c2ccccc2)C3)ccc1Oc1ccccc1 (stereo not drawn)
result: 1210 nM

query: Follow-up item: O=C1C=CC[C@H](/C=C/c2ccccc2)O1
result: 18500 nM

query: Follow-up item: COc1cccc2c1C(=O)c1c(O)c3c(c(O)c1C2=O)C[C@@](O)(C(=O)CO)C[C@@H]3O[C@H]1C[C@H](N)[C@@H](O)[C@H](C)O1
result: 145 nM

* * *

tested on: SF-295 CNS; assay: NCI tumour cell line growth inhibition, 48 h
parameter_measured: GI50

query: GET /values?readout=GI50&system=SF-295 CNS&item= CCN1C(=O)N(c2ccccc2)C2NC(=S)N(/N=C/C=C/c3ccccc3)C21 (centres undefined)
result: 0.276 µM

query: Follow-up item: COC(=O)CCC1CCC(c2cc(F)ccc2F)(S(=O)(=O)c2ccc(Cl)cc2)CC1 (centres undefined)
result: > 100 µM

query: Follow-up item: S=c1ssc(Oc2ccccc2)c1Cl
result: 15.1 µM

query: Follow-up item: Oc1ccccc1CNCC12CC3CC(CC(C3)C1)C2
result: 19.3 µM

query: Follow-up item: CC(NCCC(=O)N(CCC(=O)N(CCC(=O)N(CCC(=O)N(CCC(=O)N(CCC(=O)N(CCC(=O)N(CCC(=O)N(CCC(=O)N(CCC(=O)O)[C@H](C)c1ccccc1)[C@H](C)c1ccccc1)[C@H](C)c1ccccc1)[C@H](C)c1ccccc1)[C@H](C)c1ccccc1)[C@H](C)c1ccccc1)[C@H](C)c1ccccc1)[C@H](C)c1ccccc1)[C@H](C)c1ccccc1)c1ccccc1 (some centres undefined)
result: 1.92 µM

query: Follow-up item: Nc1nc(N)c2c(n1)NC(c1ccc(F)cc1)C1CCc3ccccc3C1=N2 (centres undefined)
result: 1.71 µM

query: Follow-up item: C=C1C(=O)O[C@H]2[C@H]1CCC(/C=N/c1ncc(Br)cc1N)=C\CC[C@@]1(C)O[C@@H]21
result: 10.4 µM

query: Follow-up item: COc1cc(NC(=O)CSc2nc3ccc(C)cc3c(=O)n2Cc2ccccc2)cc(OC)c1OC
result: 7.01 µM

query: Follow-up item: COc1ccc(/C(=N\O)c2cc(C)c(OC)c(C)c2)cc1O
result: < 0.01 µM

* * *

tested on: LOX IMVI melanoma; assay: NCI tumour cell line growth inhibition, 48 h
Hi there, I'd appreciate the recorded TGI for every entry that follows.

query: Record request: TGI value, item CN1C(=O)C(c2c[nH]c3ccccc23)N(C)C(=O)C1c1c[nH]c2ccccc12 (stereo unspecified)
result: > 100 µM

query: Follow-up item: COC(=O)NN=C1C(C)(C)C(=O)C1(C)C
result: > 100 µM

query: Follow-up item: O=C(c1ccccc1)C(Br)C(Br)c1cccc([N+](=O)[O-])c1 (stereo unspecified)
result: 2.77 µM

query: Follow-up item: c1ccc2cc3[s+]snc3cc2c1
result: > 100 µM

query: Follow-up item: NC1CC(Cl)c2c(Cl)sc(Cl)c21 (stereo unspecified)
result: > 100 µM

query: Follow-up item: CN(C)CC1C(=O)O[C@H]2[C@H]1CC/C(COC(=O)c1cc3ccccc3[nH]1)=C\CC[C@@]1(C)O[C@@H]21 (stereo partly specified)
result: 0.992 µM

query: Follow-up item: COc1cc(/C=C/C(=O)c2c(C)nc3ccccc3c2/C=C/c2ccc(C)cc2)cc(OC)c1OC
result: 2.76 µM

query: Follow-up item: O=C(O)c1cc(-c2ccncc2)nc2ccccc12
result: > 100 µM

query: Follow-up item: O=C(O)C1C(C(=O)O)C23CC2(C(=O)O)C2(C(=O)O)CCC3=C3CCCC312 (stereo unspecified)
result: 28.1 µM

query: Follow-up item: COc1ccc(S(=O)(=O)Nc2cc(/C=C\c3cc(OC)c(OC)c(OC)c3)ccc2OC)cc1
result: > 100 µM

query: Follow-up item: CCN1Cc2c(ccc(F)c2C#N)O[C@@H](C)CNC(=O)c2c(N)nn3ccc1nc23
result: 6.9 µM

query: Follow-up item: CC(C)(C)OC(=O)N1CCC2(C)CC(=O)CC=C12 (stereo unspecified)
result: > 100 µM

query: Follow-up item: NC(=O)C1Cc2cc3c(cc21)OCO3 (stereo unspecified)
result: > 100 µM

query: Follow-up item: C=CC[C@@]1([C@H](C=C)COCc2ccc(OC)cc2)CC[C@]2(C)OC(C)(C)[C@@H](c3ccccc3)N2C1=S
result: > 100 µM

query: Follow-up item: c1ccc2c(c1)cc1c3[nH]c4ccccc4c3ccn21
result: > 10 µM

query: Follow-up item: O=C(Nc1ccccc1)n1[nH]c(=O)n(-c2ccccc2)c1=O
result: > 100 µM

query: Follow-up item: O=C1C2C(c3ccccc3)NC(c3ccccc3)C1C(c1ccccc1)NC2c1ccccc1 (stereo unspecified)
result: > 100 µM

query: Follow-up item: CSc1sc(=S)sc1C(=O)N(C)c1ccccc1
result: > 100 µM

query: Follow-up item: C=C1C(=O)O[C@H]2[C@H](OC(C)=O)[C@@H](C)CCC/C(C)=C/CC[C@@]3(C)O[C@@H]3C[C@@H]12
result: 3.9 µM

query: Follow-up item: CC1(C)C/C(=N/O)c2c(nc3ccc4ccccc4c3c2-c2ccc(Cl)cc2)C1
result: 26.6 µM

query: Follow-up item: COC(=O)[C@@H](NC(=O)N(CCC#N)CCCN(C(=O)N[C@H](Cc1ccccc1)C(=O)OC)c1ccccc1)C(C)C
result: > 100 µM
